Test system: TK-10
experimental protocol: GI50 of drug in presence of dasatinib; higher = less potent
condition parameters: treatment: drug + dasatinib (fixed dose, not stated); 5 days
GI50 of drug listing for selected compounds.
measured endpoint: GI50 of drug (µM)

compound | measured endpoint | endpoint unit | numeric value
C[C@@H](Oc1cc(-n2cnc3ccc(CN4CCN(C)CC4)cc32)sc1C(N)=O)c1ccccc1C(F)(F)F + Cc1nc(Nc2ncc(C(=O)Nc3c(C)cccc3Cl)s2)cc(N2CCN(CCO)CC2)n1 | GI50 of drug | µM | 0.265
CC(C)(C)c1cnc(CSc2cnc(NC(=O)C3CCNCC3)s2)o1 + Cc1nc(Nc2ncc(C(=O)Nc3c(C)cccc3Cl)s2)cc(N2CCN(CCO)CC2)n1 | GI50 of drug | µM | 0.476
CC1(C)CCC(c2ccc(Cl)cc2)=C(CN2CCN(c3ccc(C(=O)NS(=O)(=O)c4ccc(N[C@H](CCN5CCOCC5)CSc5ccccc5)c(S(=O)(=O)C(F)(F)F)c4)cc3)CC2)C1 [ABT-263 (Navitoclax)] + Cc1nc(Nc2ncc(C(=O)Nc3c(C)cccc3Cl)s2)cc(N2CCN(CCO)CC2)n1 | GI50 of drug | µM | 1.08
CNC(=O)c1cc(Oc2ccc(NC(=O)Nc3ccc(Cl)c(C(F)(F)F)c3)c(F)c2)ccn1 [Regorafenib (BAY 73-4506)] + Cc1nc(Nc2ncc(C(=O)Nc3c(C)cccc3Cl)s2)cc(N2CCN(CCO)CC2)n1 | GI50 of drug | µM | 5.85

* * *

System: ACHN
experimental protocol: minimum viability across doses, drug + dasatinib, relative to DMSO (fraction); higher = less growth inhibition
condition parameters: treatment: drug + dasatinib (fixed dose, not stated); 5 days
I'd appreciate it if you marked entries t when minimum viability across doses is lower than 0.2 and f when it is not.

compound | group
C[C@@H](N)[C@H]1CC[C@H](C(=O)Nc2ccncc2)CC1.Cl.Cl + Cc1nc(Nc2ncc(C(=O)Nc3c(C)cccc3Cl)s2)cc(N2CCN(CCO)CC2)n1 | f
CCO.N#CC(=C(/N)Sc1ccccc1N)/C(C#N)=C(\N)Sc1ccccc1N [U0126-EtOH] + Cc1nc(Nc2ncc(C(=O)Nc3c(C)cccc3Cl)s2)cc(N2CCN(CCO)CC2)n1 | f
Cc1ccc(F)c(NC(=O)Nc2ccc(-c3cccc4[nH]nc(N)c34)cc2)c1 [Linifanib (ABT-869)] + Cc1nc(Nc2ncc(C(=O)Nc3c(C)cccc3Cl)s2)cc(N2CCN(CCO)CC2)n1 | f
O=C(Nc1cccc(Nc2ncc(Br)c(NCCc3cnc[nH]3)n2)c1)N1CCCC1 [BX-912] + Cc1nc(Nc2ncc(C(=O)Nc3c(C)cccc3Cl)s2)cc(N2CCN(CCO)CC2)n1 | t
Cc1cc(Nc2nc(N[C@@H](C)c3ccc(F)cc3)c(C#N)cc2F)n[nH]1 [AZ 960] + Cc1nc(Nc2ncc(C(=O)Nc3c(C)cccc3Cl)s2)cc(N2CCN(CCO)CC2)n1 | t

* * *

AUC of dose-response viability curve listing for selected compounds.
Tested on: UO-31
experimental protocol: AUC of dose-response viability curve, drug + dasatinib, normalised to DMSO (arbitrary (AUC of normalised viability)); higher = less growth inhibition
condition parameters: treatment: drug + dasatinib (fixed dose, not stated); 5 days
measured endpoint: AUC of dose-response viability curve

compound | study system | measured endpoint | numeric value
O=C1Nc2ccccc2/C1=C1/Nc2ccccc2C1=O [Indirubin] + Cc1nc(Nc2ncc(C(=O)Nc3c(C)cccc3Cl)s2)cc(N2CCN(CCO)CC2)n1 | UO-31 | AUC of dose-response viability curve | 3.15
O=C(Nc1ccc(OC(F)(F)F)cc1)c1sccc1NCc1ccnc2ccccc12 [OSI-930] + Cc1nc(Nc2ncc(C(=O)Nc3c(C)cccc3Cl)s2)cc(N2CCN(CCO)CC2)n1 | UO-31 | AUC of dose-response viability curve | 3.25
CCO.N#CC(=C(/N)Sc1ccccc1N)/C(C#N)=C(\N)Sc1ccccc1N [U0126-EtOH] + Cc1nc(Nc2ncc(C(=O)Nc3c(C)cccc3Cl)s2)cc(N2CCN(CCO)CC2)n1 | UO-31 | AUC of dose-response viability curve | 3.2
CCOc1cc2ncc(C#N)c(Nc3ccc(F)c(Cl)c3)c2cc1NC(=O)/C=C/CN(C)C [Pelitinib (EKB-569)] + Cc1nc(Nc2ncc(C(=O)Nc3c(C)cccc3Cl)s2)cc(N2CCN(CCO)CC2)n1 | UO-31 | AUC of dose-response viability curve | 1.8
CC[C@@H]1C(=O)N(C)c2cnc(Nc3ccc(C(=O)NC4CCN(C)CC4)cc3OC)nc2N1C1CCCC1 [BI 2536] + Cc1nc(Nc2ncc(C(=O)Nc3c(C)cccc3Cl)s2)cc(N2CCN(CCO)CC2)n1 | UO-31 | AUC of dose-response viability curve | 1.3
COc1cc2ncnc(Nc3ccc(O)c(Br)c3)c2cc1OC [WHI-P154] + Cc1nc(Nc2ncc(C(=O)Nc3c(C)cccc3Cl)s2)cc(N2CCN(CCO)CC2)n1 | UO-31 | AUC of dose-response viability curve | 5.45
CC1(COc2ccc3c(c2)ncn3-c2ccc3cccc(N4CCC(N)CC4)c3n2)COC1 + Cc1nc(Nc2ncc(C(=O)Nc3c(C)cccc3Cl)s2)cc(N2CCN(CCO)CC2)n1 | UO-31 | AUC of dose-response viability curve | 2.77
O=C(NCCCNc1nc(Nc2cccc(NC(=O)N3CCCC3)c2)ncc1I)c1cccs1 [BX-795] + Cc1nc(Nc2ncc(C(=O)Nc3c(C)cccc3Cl)s2)cc(N2CCN(CCO)CC2)n1 | UO-31 | AUC of dose-response viability curve | 3.15
O=C1NCCc2[nH]c(-c3ccncc3)cc21 + Cc1nc(Nc2ncc(C(=O)Nc3c(C)cccc3Cl)s2)cc(N2CCN(CCO)CC2)n1 | UO-31 | AUC of dose-response viability curve | 3.26
CN1CCN(c2nc(C3=C(c4c[nH]c5ccccc45)C(=O)NC3=O)c3ccccc3n2)CC1 [Sotrastaurin (AEB071)] + Cc1nc(Nc2ncc(C(=O)Nc3c(C)cccc3Cl)s2)cc(N2CCN(CCO)CC2)n1 | UO-31 | AUC of dose-response viability curve | 4.79

* * *

System: UO-31
experimental protocol: minimum viability across doses, drug + dasatinib, relative to DMSO (fraction); higher = less growth inhibition
condition parameters: treatment: drug + dasatinib (fixed dose, not stated); 5 days
Assign a class from recorded minimum viability across doses; defined classes: b0 (below 0.2), b1 (0.2 to below 0.8), b2 (0.8 or more)

compound | group
Oc1ccc(-c2nc(-c3ccc(F)cc3)c(-c3ccncc3)[nH]2)cc1 + Cc1nc(Nc2ncc(C(=O)Nc3c(C)cccc3Cl)s2)cc(N2CCN(CCO)CC2)n1 | b1
C=CC(=O)Nc1cccc(Oc2nc(Nc3ccc(N4CCN(C)CC4)cc3OC)ncc2Cl)c1 [WZ4002] + Cc1nc(Nc2ncc(C(=O)Nc3c(C)cccc3Cl)s2)cc(N2CCN(CCO)CC2)n1 | b0
Cc1ccccc1-n1c(Cn2cnc3c(N)ncnc32)nc2cccc(C)c2c1=O + Cc1nc(Nc2ncc(C(=O)Nc3c(C)cccc3Cl)s2)cc(N2CCN(CCO)CC2)n1 | b1
CC(C)(O)CC(=O)NCCn1ccc2ncnc(Nc3ccc(Oc4cccc(C(F)(F)F)c4)c(Cl)c3)c21 [TAK-285] + Cc1nc(Nc2ncc(C(=O)Nc3c(C)cccc3Cl)s2)cc(N2CCN(CCO)CC2)n1 | b1
O=C1NC(=O)/C(=C/c2ccc(-c3ccc(F)cc3O)o2)S1 + Cc1nc(Nc2ncc(C(=O)Nc3c(C)cccc3Cl)s2)cc(N2CCN(CCO)CC2)n1 | b2
C[C@@H](N)[C@H]1CC[C@H](C(=O)Nc2ccncc2)CC1.Cl.Cl + Cc1nc(Nc2ncc(C(=O)Nc3c(C)cccc3Cl)s2)cc(N2CCN(CCO)CC2)n1 | b1
CCc1cc(Nc2nccc(-c3c(-c4ccc(OC)c(C(=O)Nc5c(F)cccc5F)c4)nc4ccccn34)n2)c(OC)cc1N1CCC(N2CCN(S(C)(=O)=O)CC2)CC1 + Cc1nc(Nc2ncc(C(=O)Nc3c(C)cccc3Cl)s2)cc(N2CCN(CCO)CC2)n1 | b2
CNC(=O)c1cc(Oc2ccc(NC(=O)Nc3ccc(Cl)c(C(F)(F)F)c3)cc2)ccn1.Cc1ccc(S(=O)(=O)O)cc1 [Sorafenib (Nexavar)] + Cc1nc(Nc2ncc(C(=O)Nc3c(C)cccc3Cl)s2)cc(N2CCN(CCO)CC2)n1 | b0
CC(C)(C)Cn1c(N)nc2ccc(-c3[nH]c(C(C)(C)C)nc3-c3ccc(F)cc3)nc21.CS(=O)(=O)O.CS(=O)(=O)O + Cc1nc(Nc2ncc(C(=O)Nc3c(C)cccc3Cl)s2)cc(N2CCN(CCO)CC2)n1 | b1

* * *

Test system: CAKI-1
experimental protocol: AUC of dose-response viability curve, drug + dasatinib, normalised to DMSO (arbitrary (AUC of normalised viability)); higher = less growth inhibition
condition parameters: treatment: drug + dasatinib (fixed dose, not stated); 5 days
AUC of dose-response viability curve listing for selected compounds.
measured endpoint: AUC of dose-response viability curve

compound | result
COc1ccc2c(OCc3nnc4ccc(-c5ccccc5)nn34)ccnc2c1 [AMG-208] + Cc1nc(Nc2ncc(C(=O)Nc3c(C)cccc3Cl)s2)cc(N2CCN(CCO)CC2)n1 | 2.24
CC(C)CC(=O)Nc1n[nH]c2c1CN(C(=O)C1CCN(C)CC1)C2(C)C + Cc1nc(Nc2ncc(C(=O)Nc3c(C)cccc3Cl)s2)cc(N2CCN(CCO)CC2)n1 | 1.99
Cl.Cl.Fc1cc(-c2cccc3ncc(-c4cnn(C5CCNCC5)c4)nc23)cc(F)c1CN1CCOCC1 [NVP-BSK805] + Cc1nc(Nc2ncc(C(=O)Nc3c(C)cccc3Cl)s2)cc(N2CCN(CCO)CC2)n1 | 1.9
CN(C)CC[C@H](CSc1ccccc1)Nc1ccc(S(=O)(=O)NC(=O)c2ccc(N3CCN(Cc4ccccc4-c4ccc(Cl)cc4)CC3)cc2)cc1[N+](=O)[O-] [ABT-737] + Cc1nc(Nc2ncc(C(=O)Nc3c(C)cccc3Cl)s2)cc(N2CCN(CCO)CC2)n1 | 2.41
